biological target: Furin (Homo sapiens, UniProt P09958); assay: Inhibition of recombinant soluble human furin using pyroGlu-Arg-Thr-Lys-Arg-methyl-coumaryl-7-amide as substrate measured after 1 hr
Sequence (P09958 whole entry): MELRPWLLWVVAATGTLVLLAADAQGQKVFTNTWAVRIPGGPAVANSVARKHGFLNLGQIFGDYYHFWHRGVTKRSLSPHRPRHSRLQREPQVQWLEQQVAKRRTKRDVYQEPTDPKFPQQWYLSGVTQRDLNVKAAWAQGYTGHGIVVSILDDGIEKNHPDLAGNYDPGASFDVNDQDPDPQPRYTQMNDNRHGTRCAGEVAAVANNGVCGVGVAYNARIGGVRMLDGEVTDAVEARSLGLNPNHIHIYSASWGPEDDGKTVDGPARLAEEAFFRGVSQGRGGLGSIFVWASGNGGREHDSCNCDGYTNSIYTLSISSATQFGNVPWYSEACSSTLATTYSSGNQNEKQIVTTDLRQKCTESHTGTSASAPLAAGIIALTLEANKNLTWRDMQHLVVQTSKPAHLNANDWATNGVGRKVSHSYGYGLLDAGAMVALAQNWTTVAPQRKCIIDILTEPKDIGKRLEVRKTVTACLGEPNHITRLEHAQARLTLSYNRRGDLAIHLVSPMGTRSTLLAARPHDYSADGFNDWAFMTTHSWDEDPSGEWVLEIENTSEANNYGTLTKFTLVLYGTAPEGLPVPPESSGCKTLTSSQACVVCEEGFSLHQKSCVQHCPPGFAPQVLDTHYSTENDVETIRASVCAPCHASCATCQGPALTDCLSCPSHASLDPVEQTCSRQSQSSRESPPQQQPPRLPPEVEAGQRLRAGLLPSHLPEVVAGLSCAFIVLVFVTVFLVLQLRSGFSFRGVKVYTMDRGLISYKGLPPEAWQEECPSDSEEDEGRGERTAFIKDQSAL
Readout Type: Ki (nM)
Answers are plain numbers, in nM.

{"Smiles Str": "CC(=O)N[C@@H](CCCNC(=N)N)C(=O)N[C@@H](C)C(=O)N[C@@H](CCCNC(=N)N)C(=O)N[C@H](C(=O)N[C@@H](CCCNC(=N)N)C(=O)N[C@@H](CCCCN)C(=O)N[C@@H](CCCCN)C(=O)N[C@@H](CCCNC(=N)N)C(=O)N[C@H](C(N)=O)[C@@H](C)O)C(C)C", "Ki / nM": 7}

With those in mind, consider the next compound.
Request: Answer with the recorded Ki of `CC(=O)N[C@@H](CCCNC(=N)N)C(=O)N[C@@H](Cc1c[nH]c2ccccc12)C(=O)N[C@@H](CCCNC(=N)N)C(=O)N[C@@H](CCCNC(=N)N)C(=O)N[C@@H](CCCNC(=N)N)C(=O)N[C@@H](CCCCN)C(=O)N[C@@H](CCCCN)C(=O)N[C@@H](CCCNC(=N)N)C(=O)N[C@H](C(N)=O)[C@@H](C)O` only.
Response: 29

* * *

biological target: Furin (Homo sapiens); assay: Inhibition of recombinant soluble human furin using pyroGlu-Arg-Thr-Lys-Arg-methyl-coumaryl-7-amide as substrate measured after 1 hr
Readout Type: pKi
One number for each entry, as −log10 of the molar value.

For every record below, what is its pKi?
1. CC(=O)N[C@@H](Cc1ccccc1)C(=O)N[C@@H](C)C(=O)N[C@@H](CCCNC(=N)N)C(=O)N[C@@H](CCCNC(=N)N)C(=O)N[C@@H](CCCNC(=N)N)C(=O)N[C@@H](CCCCN)C(=O)N[C@@H](CCCCN)C(=O)N[C@@H](CCCNC(=N)N)C(=O)N[C@H](C(N)=O)[C@@H](C)O
2. CC(=O)N[C@@H](CCCNC(=N)N)C(=O)N[C@@H](CC(N)=O)C(=O)N[C@@H](CCCNC(=N)N)C(=O)N[C@@H](CCCNC(=N)N)C(=O)N[C@@H](CCCNC(=N)N)C(=O)N[C@@H](CCCCN)C(=O)N[C@@H](CCCCN)C(=O)N[C@@H](CCCNC(=N)N)C(=O)N[C@H](C(N)=O)[C@@H](C)O

Response:
1: 7.85; 2: 7.70

* * *

So I've got a bunch of compounds here, and I need their half-life values.
assay: Half life in CD1 mouse plasma by LC-MS/MS analysis; type: ADME, cell-free; conditions: CD1, mouse
Could you write the number and then its unit?

Previously resolved entries follow.
{"Smiles Str": "CC(=O)N[C@@H](CCCNC(=N)N)C(=O)N[C@@H](Cc1ccccc1)C(=O)N[C@@H](CCCNC(=N)N)C(=O)N[C@@H](CCCNC(=N)N)C(=O)N[C@@H](CCCNC(=N)N)C(=O)N[C@@H](CCCCN)C(=O)N[C@@H](CCCCN)C(=O)N[C@@H](CCCNC(=N)N)C(=O)N[C@H](C(N)=O)[C@@H](C)O", "half-life": "0.96 min"}
{"Smiles Str": "CC(=O)N[C@@H](CCCNC(=N)N)C(=O)N[C@@H](C)C(=O)N[C@@H](CCCNC(=N)N)C(=O)N[C@@H](CCCNC(=N)N)C(=O)N[C@@H](CCCNC(=N)N)C(=O)N[C@@H](CCCCN)C(=O)N[C@@H](CCCCN)C(=O)NN(CCCNC(=N)N)CC(=O)N[C@@H](Cc1ccccc1)C(N)=O", "half-life": "2.59 min"}
{"Smiles Str": "CC(=O)N[C@@H](CCCNC(=N)N)C(=O)N[C@@H](C)C(=O)N[C@@H](CCCNC(=N)N)C(=O)N[C@@H](Cc1ccccc1)C(=O)N[C@@H](CCCNC(=N)N)C(=O)N[C@@H](CCCCN)C(=O)N[C@@H](CCCCN)C(=O)N[C@@H](CCCNC(=N)N)C(=O)N[C@H](C(N)=O)[C@@H](C)O", "half-life": "0.32 min"}

Now look at this one.
Request: Using the record for `CC[C@H](NC(=O)[C@H](CCCNC(=N)N)NC(=O)[C@H](C)NC(=O)[C@H]1CCCN1C(C)=O)C(=O)N[C@@H](CCCNC(=N)N)C(=O)N[C@@H](CCCCN)C(=O)N[C@@H](CCCCN)C(=O)N[C@@H](CCCNC(=N)N)C(=O)N[C@H](C(N)=O)[C@@H](C)O` , state its measured half-life.
Response: 1.11 min
